The measurements presented in this section are drawn from patent US20250066360A1.

For each entry below, report its pIC50 value.
System: p-Hsp27 in U937 cells
Experiment: Inhibition of p-Hsp27 in LPS-stimulated U937 cells (ELISA)
Type: cell-based
Conditions: Homo sapiens, U-937; PMA-differentiated U937, 10 ng/ml LPS 0.5 hours; read-out: U937 cell activity test p-HSP27 IC50
Give bare numbers, as −log10 of the molar value.

Worked examples follow.
>>> value_observed("[2H]C([2H])(Oc1cc(C)n(-c2cc(-n3cccc(C(C)(C)O)c3=O)ncc2C)c(=O)c1Cl)c1ccc(F)cc1F [Example 14-1]")
9.89
>>> value_observed("[2H]C([2H])(Oc1cc2n(c(=O)c1Cl)-c1c(cnc(-c3ccnc(C(C)(C)O)n3)c1F)CCCC2)c1ncc(F)cc1F [Example 9-1]")
10.00

Value sought for every listed molecule: pIC50.
1. [2H]C([2H])(Oc1cc2n(c(=O)c1Cl)-c1c(cnc(-n3cc(F)c(C(C)(C)NC(C)=O)n3)c1F)CCCC2)c1ncc(F)cc1F [Example 6-1]
2. [2H]C([2H])(Oc1cc2n(c(=O)c1Cl)-c1c(cnc(-c3ccnc(C(C)(C)NC(C)=O)n3)c1F)CCCC2)c1ncc(F)cc1F [Example 7-1]
3. [2H]C([2H])(Oc1cc2n(c(=O)c1Cl)-c1cc(-c3ccnc(C(C)(C)NC(C)=O)n3)ncc1CCCC2)c1ncc(F)cc1F [Example 4-1]
4. [2H]C([2H])(Oc1cc2n(c(=O)c1Cl)-c1cc(-c3ccnc(C(C)(C)O)n3)ncc1/C=C\CC2)c1ncc(F)cc1F [Example 16-1]

Reply |
9.82
9.46
9.46
9.55
